biological target: Thromboxane-A synthase (Oryctolagus cuniculus); test: Inhibition of Thromboxane A2 synthetase in rabbit platelets

MOLECULE: CCOC(=O)C1=C(Cn2ccnc2)N=C(C)C(C(=O)OC(C)(C)C)C1c1cccc([N+](=O)[O-])c1 (stereo not drawn)
IC50: 23 µM

MOLECULE: CCOC(=O)C1=C(CCn2ccnc2)N=C(C)C(C(=O)OCC)C1c1cccc([N+](=O)[O-])c1 (stereo not drawn)
IC50: 11 µM

MOLECULE: CCOC(=O)C1=C(COCCn2ccnc2)N=C(C)C(C(=O)OC)C1c1cccc([N+](=O)[O-])c1 (stereo not drawn)
IC50: 115 µM

MOLECULE: CCOC(=O)C1=C(Cn2ccnc2)N=C(C)C(C(=O)OCC)C1c1cccc([N+](=O)[O-])c1 (stereo not drawn)
IC50: 1.4 µM

MOLECULE: CCOC(=O)C1=C(Cn2ccnc2)N=C(C)C(C(=O)OC)C1c1cccc(C(F)(F)F)c1Cl (stereo not drawn)
IC50: 16 µM

MOLECULE: CCOC(=O)C1=C(Cn2ccnc2)N=C(C)C(C(=O)OC)C1c1cccc([N+](=O)[O-])c1 (stereo not drawn)
IC50: 5 µM

MOLECULE: CCOC(=O)C1=C(Cn2ccnc2)N=C(C)C(C(=O)OC)C1c1ccccc1[N+](=O)[O-] (stereo not drawn)
IC50: 3.2 µM

MOLECULE: CCOC(=O)C1=C(Cn2ccnc2)N=C(C)C(C(=O)OC(C)C)C1c1cccc([N+](=O)[O-])c1 (stereo not drawn)
IC50: 2 µM

Value source: BindingDB's records for doi:10.1021/jm00164a028
